# experimental.details: AUC (0 to t) in Sprague-Dawley rat at 3 mg/kg, iv by LC-MS/MS analysis
# Assay type: ADME, organism-based
# study.conditions: in vivo
measurement.label: AUC(0-t) (µg·h/mL)
Numbers only; they are read as µg·h/mL.

// query What value of AUC(0-t) has been recorded for this entry: "O=C(O)C1(Sc2ccnc3ccc(Br)cc23)CCC1"
// result 193

----------
# experimental.details: Tmax in cynomolgus monkey at 10 mg/kg, po by LC-MS/MS analysis
# Format: ADME, organism-based, Macaca fascicularis
# study.conditions: in vivo
measurement.label: Tmax (min)
Numbers only; they are read as min.

// query What value of Tmax has been recorded for this entry: "O=C(O)C1(Sc2ccnc3ccc(Br)cc23)CCC1"
// result 30
